target: Heat shock protein HSP 90-beta (Homo sapiens); experiment: Inhibition of full-length HSP90 (unknown origin) expressed in Escherichia coli assessed as inhibition of ATPase activity after 3 hrs by spectrophotometric analysis
Sequence (P08238 whole entry): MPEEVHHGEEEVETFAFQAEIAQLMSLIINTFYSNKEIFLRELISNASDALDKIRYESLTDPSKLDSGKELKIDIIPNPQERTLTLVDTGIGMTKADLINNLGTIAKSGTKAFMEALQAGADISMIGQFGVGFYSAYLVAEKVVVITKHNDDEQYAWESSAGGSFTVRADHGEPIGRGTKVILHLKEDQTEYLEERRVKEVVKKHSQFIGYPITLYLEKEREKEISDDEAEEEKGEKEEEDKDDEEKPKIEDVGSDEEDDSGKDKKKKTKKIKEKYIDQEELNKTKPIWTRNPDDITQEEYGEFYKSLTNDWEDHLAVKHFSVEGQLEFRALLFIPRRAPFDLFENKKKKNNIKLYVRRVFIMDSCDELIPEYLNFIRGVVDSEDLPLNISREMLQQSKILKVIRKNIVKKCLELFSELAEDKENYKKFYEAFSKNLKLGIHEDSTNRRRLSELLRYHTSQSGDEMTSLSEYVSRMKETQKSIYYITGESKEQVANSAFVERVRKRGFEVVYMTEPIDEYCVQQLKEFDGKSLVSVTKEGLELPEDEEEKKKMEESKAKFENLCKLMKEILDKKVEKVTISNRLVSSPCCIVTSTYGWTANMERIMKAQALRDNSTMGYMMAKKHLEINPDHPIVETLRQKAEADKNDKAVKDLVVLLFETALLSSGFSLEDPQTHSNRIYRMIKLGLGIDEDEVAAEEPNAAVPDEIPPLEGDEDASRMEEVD
pIC50: −log10 of the molar value.
Listed here: items and their measured pIC50.

# chemical.smiles, pIC50
rows = [
    ("O=C(c1ccc(O)cc1O)N1CCc2nc(N3CCN(c4ncccn4)CC3)ncc2C1", 5.49),
    ("CN(C)c1ccc(CN2CCc3nc(N4CCN(c5ncccn5)CC4)ncc3C2)cc1", 4.34),
    ("CN1CCN(c2ncc3c(n2)CCN(Cc2ccc(Br)s2)C3)CC1", 4.20),
    ("Clc1ccc(CN2CCc3nc(N4CCN(c5ncccn5)CC4)ncc3C2)cc1", 4.32),
    ("COc1ccc(OC)c(C(=O)N2CCc3nc(N4CCN(c5ncccn5)CC4)ncc3C2)c1", 4.78),
    ("CC1CCN(c2ncc3c(n2)CCN(Cc2ccc(Br)s2)C3)CC1", 4.06),
    ("O=C(c1ccc(F)cc1)N1CCc2nc(N3CCN(c4ncccn4)CC3)ncc2C1", 4.57),
    ("Cc1ncc2c(n1)CCN(C(=O)c1cc(Cl)c(O)cc1O)C2", 6.38),
    ("COc1ccc(OC)c(CN2CCc3nc(N4CCN(c5ncccn5)CC4)ncc3C2)c1", 4.45),
    ("Fc1ccc(CN2CCc3nc(N4CCN(c5ncccn5)CC4)ncc3C2)cc1", 4.40),
    ("COc1ccc(C(=O)N2CCc3nc(N4CCN(c5ncccn5)CC4)ncc3C2)c(OC)c1", 5.10),
]
